Cited source for all entries: patent US20130251703A1

# Lookup of reported pKd keyed by entry
system: T1, Hu HER3: CD33-[Human HER3, residues 20-640]-TAG (human, UniProt P21860 20-640)
T1 construct: also called hu HER3-Tag; HER3-Tag; not shown: C-terminal TAG (e.g. FLAG TAG)
method.notes: solution equilibrium titration (SET), IgG, ECL read-out
Please report pKd as the negative decimal logarithm of the molar concentration, giving only the number.

>>> test_result("MOR12615 (antibody, human IgG1, lambda, V domains shown, Tested as IgG) VH: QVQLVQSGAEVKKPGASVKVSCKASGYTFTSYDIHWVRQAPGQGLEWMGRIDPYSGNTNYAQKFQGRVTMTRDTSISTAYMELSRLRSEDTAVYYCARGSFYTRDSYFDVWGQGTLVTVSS VL: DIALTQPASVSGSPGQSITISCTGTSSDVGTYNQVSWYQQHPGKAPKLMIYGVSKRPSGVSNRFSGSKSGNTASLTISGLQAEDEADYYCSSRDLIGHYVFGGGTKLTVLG")
9.99
>>> test_result("MOR13655 (antibody, human IgG1, lambda, V domains shown, Tested as IgG) VH: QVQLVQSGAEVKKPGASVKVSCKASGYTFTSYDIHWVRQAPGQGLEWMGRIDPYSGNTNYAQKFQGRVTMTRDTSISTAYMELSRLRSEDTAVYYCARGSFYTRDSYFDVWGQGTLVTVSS VL: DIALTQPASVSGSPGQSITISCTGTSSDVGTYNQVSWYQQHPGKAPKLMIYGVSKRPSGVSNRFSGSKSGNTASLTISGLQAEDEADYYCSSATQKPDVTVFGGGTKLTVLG")
10.18

# input for lookup
Specify reported pKd for the binder shown: MOR12515 (antibody, human IgG1, lambda, V domains shown, Tested as IgG) VH: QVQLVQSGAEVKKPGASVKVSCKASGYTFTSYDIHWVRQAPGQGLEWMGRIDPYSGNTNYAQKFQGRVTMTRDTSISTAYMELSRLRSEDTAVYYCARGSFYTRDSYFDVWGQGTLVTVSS VL: DIALTQPASVSGSPGQSITISCTGTSSDVGTYNQVSWYQQHPGKAPKLMIYGVSKRPSGVSNRFSGSKSGNTASLTISGLQAEDEADYYCYSRDSPMDQVFGGGTKLTVLG
9.06
